Values were extracted from EPA's aquatic toxicity sets.

Test system: Pimephales promelas
protocol: 96 h LC50 (-log10 mol/L); higher = more toxic
Collected 96 h LC50 (-log10 mol/L) values appear next to each entry.
Lab note: record the figure alone, no unit after it.

Answered examples (2):
| molecule | 96 h LC50 (-log10 mol/L) |
| --- | --- |
| C=C(C)C(=O)OCC1CCCO1 (centres undefined) | 3.69 |
| N#Cc1c(Cl)cccc1Cl | 4.42 |

Req: Lab note: need 96 h LC50 (-log10 mol/L) for C#CCC(C)O (centres undefined) on Pimephales promelas, anyone have it?
Resp: 3.38

Req: Same question, CCOC(=O)CCC(=O)OCC this time
Resp: 3.1

Req: C=C(C)[C@H]1Cc2c(ccc3c2O[C@@H]2COc4cc(OC)c(OC)cc4[C@@H]2C3=O)O1 , same question.
Resp: 7.82

Req: Now this one: NC(=O)c1ccccc1O
Resp: 3.13

Req: Also check OC(c1ccc(Cl)cc1)(c1ccc(Cl)cc1)C(Cl)(Cl)Cl
Resp: 5.86

Req: Please do the same for OCCN(CCO)c1ccccc1 as well.
Resp: 2.39

Req: Repeat with C#CC(C)(O)c1ccccc1 (centres undefined)
Resp: 3.11

====

Overview of recorded 48 h IGC50 (-log10 mol/L) for various compounds
System: Tetrahymena pyriformis
protocol: 48 h IGC50 (-log10 mol/L); higher = more toxic
Give only the figure.

Here's what some known entries look like.
| compound | experimental-system | assay-result |
| --- | --- | --- |
| CCCCCCCCCCCO | Tetrahymena pyriformis | 4.96 |
| CCC#CC(C)=O | Tetrahymena pyriformis | 4.32 |
| CC(C)(Br)C(=O)C(C)(C)Br | Tetrahymena pyriformis | 3.51 |
| Cc1c(O)ccc(O)c1C | Tetrahymena pyriformis | 4.41 |
| CCOC(=O)CC(C)C | Tetrahymena pyriformis | 2.28 |
| N#Cc1cccc([N+](=O)[O-])c1 | Tetrahymena pyriformis | 3.45 |

Req: Which value of 48 h IGC50 (-log10 mol/L) has been reported for Cc1cc(Cl)c([N+](=O)[O-])cc1[N+](=O)[O-] in the records?
Resp: 5.33

Req: Next entry: CCCCCCN
Resp: 2.78

Req: Cool, now COc1cc(C=O)cc(O)c1OC
Resp: 2.61

Req: Also CNC(N)=S , if possible.
Resp: 1.63

Req: Next compound: CCCCCCCCOC(C)=O
Resp: 4.06

Req: Try the compound O=[N+]([O-])c1ccc(Br)s1
Resp: 4.41

====

Test system: Tetrahymena pyriformis
protocol: 48 h IGC50 (-log10 mol/L); higher = more toxic
measured-parameter: 48 h IGC50 (-log10 mol/L)
Answer with a number only.

| compound | 48 h IGC50 (-log10 mol/L) |
| --- | --- |
| Cc1cc(O)ccc1[N+](=O)[O-] | 4.73 |
| O=C(O)CCCCCC(=O)O | 2.42 |
| Cc1nc2ccccc2nc1C | 3.25 |

Req: Entry under review: CC(C)(C)c1ccncc1 . Reported 48 h IGC50 (-log10 mol/L)?
Resp: 3.2

Req: Now consider O=Cc1ccsc1 .
Resp: 3.4

Req: Repeat for the following compound: CCCCCCCCBr
Resp: 4.87

Req: Another compound to look at: CCCOC=O
Resp: 1.98

Req: Another compound to look at: Cc1nc(C)c(C)o1
Resp: 1.99

Req: // same read-out, input: CCN=C=S
Resp: 4.63

Req: And CCC(=O)Cc1ccccc1 ?
Resp: 2.79

Req: Further, for O=c1ccc(Cl)c[nH]1 ?
Resp: 2.25

Req: Another compound to look at: CCC(=O)CC
Resp: 1.54

Req: Repeat for the following compound: OCc1ccccc1-c1ccccc1
Resp: 3.82

Req: And CCCCCC(=O)O ?
Resp: 2.79

Req: Try CC(O)CC(C)(C)O (stereo not given) next.
Resp: 1.05
